Entry source: paper PMC9482650

target: T1, MPP6, Q9NZW5
T1 sequence (Q9NZW5 125-219, limits assumed, looked up): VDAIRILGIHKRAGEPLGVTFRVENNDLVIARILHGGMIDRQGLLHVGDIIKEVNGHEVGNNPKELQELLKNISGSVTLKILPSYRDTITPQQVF
method-description: holdup assay
Set-up: key: below the threshold = too weak to quantify, mostly under pKd 3.1 to 4
condition-description: plain residues with an end cap or a label only (N-terminal biotin on a linker: ado-ado)
measured-metric: pKd

In the examples that follow, each entry is paired with its recorded pKd.
PLPPEEESWV [GAS2L2, Q8NHY3] : below the threshold
TKEIPNCTSV [SORCS3, Q9UPU3] : below the threshold
MLPANYVEAI [NEB, P20929] : below the threshold
DSEEELPTRL [GRK6, P43250] : below the threshold
PALKNGQYWV [CSPG4, Q6UVK1] : 3.83

// query Please indicate pKd recorded for RGKNRRQSIF [CDK18, Q07002]
// result below the threshold

// query Please indicate pKd recorded for PDSYHRRDFW [U2AF2, P26368]
// result below the threshold

// query Please indicate pKd recorded for TNSKQGETTV [FZD1, Q9UP38]
// result below the threshold

// query Please indicate pKd recorded for GSQSQVETEA [FKBP4, Q02790]
// result below the threshold

// query Please indicate pKd recorded for FHSIKQSTAV [CRHR1, P34998]
// result 3.7

// query Please indicate pKd recorded for DAAHHDESNC [FMNL3, Q8IVF7]
// result below the threshold

// query Please indicate pKd recorded for PLATCDETSI [SEMA4F, O95754]
// result below the threshold

// query Please indicate pKd recorded for AKADAQESRL [PLCB2, Q00722]
// result below the threshold
